- System: endogenous secretory proteome of HepG2^ATF6 cells
- TEST NAME: [35S] metabolic labeling, total secreted protein from HepG2^ATF6 cells
- Format: cell-based
- CONDITIONS USED: 15 h pretreatment, 10 μM compound or 1 μM Tg, 4 h chase
READOUT NAME: accumulation of [35S]-labeled protein in media (total secreted proteome)

INSERT INTO results (molecule, test_value) VALUES
  ('Cc1ccc(O)c(N/C=C/C(=O)c2ccc(F)cc2)c1', 'did not influence'),
  ('Cc1ccc(O)c(NC(=O)CCc2ccccc2)c1', 'did not influence'),
  ('O=[N+]([O-])c1ccc(N/N=C/c2ccccc2O)cc1', 'did not influence');
